// data source = patent US20230286970A1

Molecular target: recombinant human HDAC6 (Homo sapiens (Human))
Sequence (Q9UBN7 whole entry): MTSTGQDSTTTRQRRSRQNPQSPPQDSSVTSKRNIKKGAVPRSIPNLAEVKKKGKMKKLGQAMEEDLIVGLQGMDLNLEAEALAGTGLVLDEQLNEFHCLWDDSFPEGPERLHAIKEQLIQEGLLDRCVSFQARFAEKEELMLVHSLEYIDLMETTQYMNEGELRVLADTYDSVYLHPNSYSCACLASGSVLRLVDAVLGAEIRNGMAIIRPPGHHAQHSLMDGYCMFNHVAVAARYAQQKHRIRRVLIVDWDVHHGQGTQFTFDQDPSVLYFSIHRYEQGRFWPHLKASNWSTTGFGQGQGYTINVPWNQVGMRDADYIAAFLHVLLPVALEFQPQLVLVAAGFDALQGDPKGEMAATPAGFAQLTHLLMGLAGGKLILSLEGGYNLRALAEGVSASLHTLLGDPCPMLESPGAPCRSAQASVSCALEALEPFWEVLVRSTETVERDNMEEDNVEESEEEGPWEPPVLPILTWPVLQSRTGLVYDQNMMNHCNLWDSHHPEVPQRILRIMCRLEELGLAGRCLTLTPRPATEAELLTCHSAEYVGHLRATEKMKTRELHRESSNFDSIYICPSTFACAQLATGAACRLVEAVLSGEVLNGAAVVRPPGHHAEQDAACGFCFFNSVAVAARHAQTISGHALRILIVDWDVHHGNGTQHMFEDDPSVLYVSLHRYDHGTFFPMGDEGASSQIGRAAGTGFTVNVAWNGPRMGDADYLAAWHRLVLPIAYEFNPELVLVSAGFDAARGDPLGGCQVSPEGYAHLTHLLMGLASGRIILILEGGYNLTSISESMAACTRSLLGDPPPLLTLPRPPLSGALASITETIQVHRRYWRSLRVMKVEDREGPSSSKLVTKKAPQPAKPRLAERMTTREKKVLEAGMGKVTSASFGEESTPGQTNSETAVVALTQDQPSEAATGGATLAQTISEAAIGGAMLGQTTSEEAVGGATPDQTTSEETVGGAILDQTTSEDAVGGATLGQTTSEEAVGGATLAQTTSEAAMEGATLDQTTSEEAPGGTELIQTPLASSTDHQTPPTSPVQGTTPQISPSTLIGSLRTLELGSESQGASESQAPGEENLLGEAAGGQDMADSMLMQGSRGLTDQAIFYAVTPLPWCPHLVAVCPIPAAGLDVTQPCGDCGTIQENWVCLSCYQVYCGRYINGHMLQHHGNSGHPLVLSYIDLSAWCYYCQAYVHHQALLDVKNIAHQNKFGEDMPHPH
Assay: Enzymatic screening, HDAC6 inhibition (fluorogenic FdL_G substrate)
Experimental: For each test compound, 100× concentrated DMSO solutions at 8 doses were prepared and then diluted in assay buffer (25 mM Tris-HCl, pH 8, 130 mM NaCl, 0.05% Tween-20, 10% Glycerol) to obtain 5× concentrated solutions in relation to the final concentrations (typical final concentration range—6.4-200000 nM or 0.18-50000 nM, final DMSO content—1%). […]
quantity name: IC50

Guide cases for IC50, answers given:
> print(dat)
                                   molecule  endpoint.value
1  CC(C)(C)OC(=O)N1CCC2(C1)C(=O)Nc1ccc(-c3cn(Cc4ccc(-c5nnc(C(F)F)o5)cn4)nn3)cc12 (single isomer, unassigned) [compound 266]           35 nM
2  Nc1ccc(-c2cn(C(CN3CCCC3)c3ccc(-c4nnc(C(F)F)o4)cc3)nn2)cn1 (stereo not shown) [Compd. 124]           47 nM

Prompt: Requested read-out: IC50. Entry: Nc1cc2cc(-c3cn(Cc4cc(F)c(-c5nnc(C(F)F)o5)cc4F)nn3)ccc2cn1 [compound 406]
Completion: 85 nM

Prompt: Requested read-out: IC50. Entry: Nc1nc2cc(-c3cn(Cc4ccc(-c5nnc(C(F)F)o5)cc4)nn3)ccc2[nH]1 [Compd. 8]
Completion: 14 nM

Prompt: Requested read-out: IC50. Entry: Nc1ccc(-c2cn(Cc3ccc(-c4nnc(C(F)F)o4)cc3)cn2)cn1 [compound 151]
Completion: 65 nM

Prompt: Requested read-out: IC50. Entry: CC(C)(c1ccncc1)c1nnn(Cc2ccc(-c3nnc(C(F)F)o3)cc2)n1 [compound 219]
Completion: 156 nM

Prompt: Requested read-out: IC50. Entry: Nc1ccc(-c2cn([C@@H](CN3CCCC3)c3ccc(-c4nnc(C(F)F)o4)cc3)nn2)cn1 [compound 312]
Completion: 41 nM

###

target: recombinant human HDAC1 (Homo sapiens (Human)); assay: Enzymatic screening, HDAC1 inhibition (fluorogenic FdL_G substrate)
Sequence (Q13547 whole entry): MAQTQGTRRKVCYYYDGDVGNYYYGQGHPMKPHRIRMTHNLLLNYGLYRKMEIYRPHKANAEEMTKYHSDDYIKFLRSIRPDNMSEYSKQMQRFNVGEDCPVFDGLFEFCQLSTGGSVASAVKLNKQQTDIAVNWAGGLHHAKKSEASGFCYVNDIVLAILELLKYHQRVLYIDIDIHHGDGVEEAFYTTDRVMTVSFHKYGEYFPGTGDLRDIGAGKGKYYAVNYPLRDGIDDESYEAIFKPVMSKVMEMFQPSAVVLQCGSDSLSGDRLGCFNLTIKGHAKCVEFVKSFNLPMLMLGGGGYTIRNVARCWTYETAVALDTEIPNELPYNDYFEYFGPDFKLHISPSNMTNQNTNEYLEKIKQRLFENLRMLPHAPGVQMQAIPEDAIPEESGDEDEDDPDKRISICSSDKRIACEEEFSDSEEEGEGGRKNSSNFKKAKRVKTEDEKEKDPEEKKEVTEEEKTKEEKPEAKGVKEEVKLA
pIC50: −log10 of the molar value.
quantity name: pIC50

> print(dat)
                                   compound                             tested.system  endpoint.value
1  CCNc1ccc2cc(-c3nnn(Cc4cc(F)c(-c5nnc(C(F)F)o5)cc4F)n3)ccc2n1 [compound 409]  recombinant human HDAC1 (Homo sapiens (Human))            3.00
2  O=C1Nc2ccc(-c3cn(Cc4ccc(-c5nnc(C(F)F)o5)cn4)nn3)cc2C12CCCC2 [Compd. 26]  recombinant human HDAC1 (Homo sapiens (Human))          < 3.70
3  Cc1ncc(-c2nnn(Cc3ccc(-c4nnc(C(F)F)o4)cc3)n2)cc1N [compound 65]  recombinant human HDAC1 (Homo sapiens (Human))          < 3.70
4  Nc1ccc(-c2nc(Cc3ccc(-c4nnc(C(F)F)o4)cc3)no2)cn1 [compound 247]  recombinant human HDAC1 (Homo sapiens (Human))          < 3.70
5  Nc1ccc(-c2noc(Cc3ccc(-c4nnc(C(F)F)o4)cc3)n2)cn1 [compound 135]  recombinant human HDAC1 (Homo sapiens (Human))          < 3.70

Prompt: Requested read-out: pIC50. Entry: FC(F)c1nnc(-c2ccc(Cc3nc(-c4ccc(NC5=NCCN5)cc4)no3)cc2)o1 [compound 379]
Completion: < 3.00

Prompt: Requested read-out: pIC50. Entry: CS(=O)(=O)NCC(c1ccc(-c2nnc(C(F)F)o2)cc1)n1cc(-c2ccc(N)nc2)nn1 (centres unmarked) [compound 302]
Completion: < 3.00

Prompt: Requested read-out: pIC50. Entry: Fc1cccc(-c2cn(Cc3ccc(-c4nnc(C(F)F)o4)cc3)nn2)c1 [compound 248]
Completion: < 3.70
